attribute.measured: IC50 (µM)
Provide the reading as a plain figure in µM.

Please state recorded IC50 (tested on PIM2 (Homo sapiens, UniProt Q9P1W9)) of O=c1c(O)c(-c2ccc(O)c(O)c2)oc2cc(O)c(O)c(O)c12 [US11759530, Compound Table1.8]
Sequence (Q9P1W9 whole entry): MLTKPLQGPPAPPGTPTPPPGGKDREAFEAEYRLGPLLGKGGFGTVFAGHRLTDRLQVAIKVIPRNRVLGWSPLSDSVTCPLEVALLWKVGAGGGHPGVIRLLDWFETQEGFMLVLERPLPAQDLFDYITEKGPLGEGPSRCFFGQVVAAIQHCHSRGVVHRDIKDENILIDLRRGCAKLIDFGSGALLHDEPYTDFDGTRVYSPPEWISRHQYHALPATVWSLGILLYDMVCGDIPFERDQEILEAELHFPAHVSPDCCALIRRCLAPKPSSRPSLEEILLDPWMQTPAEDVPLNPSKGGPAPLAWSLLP
3.45

###

test.system: Mitogen-activated protein kinase 11 (Homo sapiens, UniProt Q15759)
Sequence (Q15759 whole entry): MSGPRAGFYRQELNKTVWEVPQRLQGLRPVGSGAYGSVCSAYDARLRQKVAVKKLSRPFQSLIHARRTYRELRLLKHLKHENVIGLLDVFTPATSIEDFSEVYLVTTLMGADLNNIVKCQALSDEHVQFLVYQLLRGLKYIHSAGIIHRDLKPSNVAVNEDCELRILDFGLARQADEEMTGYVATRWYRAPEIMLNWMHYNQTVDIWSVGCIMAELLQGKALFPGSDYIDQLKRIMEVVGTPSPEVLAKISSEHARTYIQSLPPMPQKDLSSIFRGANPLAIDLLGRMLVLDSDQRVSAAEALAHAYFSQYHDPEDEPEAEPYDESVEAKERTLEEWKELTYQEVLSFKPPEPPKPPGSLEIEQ
assay: No assay
attribute.measured: IC50
Could you kindly put the unit after your number?

Item under review: O=S(=O)(c1c(O)c(Cl)cc(Cl)c1Cl)c1c(O)c(Cl)cc(Cl)c1Cl . Reported IC50?
0.55 µM
